tested target: cathepsin S (Homo sapiens)
Construct: made in house
Sequence (P25774 115-331): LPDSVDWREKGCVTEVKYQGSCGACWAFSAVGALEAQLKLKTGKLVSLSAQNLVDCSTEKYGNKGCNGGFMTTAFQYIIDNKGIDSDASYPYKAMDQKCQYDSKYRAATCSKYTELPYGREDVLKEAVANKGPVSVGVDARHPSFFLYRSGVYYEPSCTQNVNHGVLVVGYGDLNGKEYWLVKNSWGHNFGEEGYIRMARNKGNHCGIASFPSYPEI
procedure summary: Kinetic parameters of ACC substrates with cathepsin S
Type: biochemical
experimental parameters: Fig. 5B; pH 5.5, 37 °C; cathepsin S 5–20 nM; triplicate, SD below 15%
Non-standard residues stand in square brackets, D forms with d. *: point of attachment. Phe(3,4-F2) = N[C@@H](Cc1ccc(F)c(F)c1)C(=O)O; ACC = NC(=O)Cc1cc(=O)oc2cc(N*)ccc12
observation type: kcat/KM Cath-S (M⁻¹ s⁻¹)
Report as a plain number; the unit M⁻¹ s⁻¹ is understood.

## Task Tell me kcat/KM Cath-S reported for Ac-H[dV][Phe(3,4-F2)]R-{ACC} (SMILES CC(=O)N[C@@H](Cc1c[nH]cn1)C(=O)N[C@@H](C(=O)N[C@@H](Cc1ccc(F)c(F)c1)C(=O)N[C@@H](CCCNC(=N)N)C(=O)Nc1ccc2c(CC(N)=O)cc(=O)oc2c1)C(C)C)
## Result 580

---

Property: Relative substrate activity (rate of hydrolysis), cathepsin L; scope: individual substances
tested target: cathepsin L (Homo sapiens)
Construct: made in house
Sequence (P07711 114-333): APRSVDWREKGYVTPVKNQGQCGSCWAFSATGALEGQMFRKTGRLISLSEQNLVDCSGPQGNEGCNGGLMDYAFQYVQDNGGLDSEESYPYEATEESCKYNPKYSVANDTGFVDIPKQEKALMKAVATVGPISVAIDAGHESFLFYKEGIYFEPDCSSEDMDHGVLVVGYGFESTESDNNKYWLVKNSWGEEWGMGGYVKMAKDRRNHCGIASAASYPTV
procedure summary: Substrate selectivity screening, rate of hydrolysis, cathepsin L
Type: biochemical
experimental parameters: Table S4; substrate 100µM, cathepsin 5nM; pH 5.5, 37 °C; average of at least three screenings
Non-standard residues stand in square brackets, D forms with d. *: point of attachment. Phe(3,4-F2) = N[C@@H](Cc1ccc(F)c(F)c1)C(=O)O; Phe(4-F) = N[C@@H](Cc1ccc(F)cc1)C(=O)O; ACC = NC(=O)Cc1cc(=O)oc2cc(N*)ccc12; Tic = O=C(O)[C@@H]1Cc2ccccc2CN1; Orn = NCCC[C@H](N)C(=O)O
Write down the numeric answer in RFU/s and omit the unit.

## Task Complete the entry with Relative substrate activity (rate of hydrolysis), cathepsin L for Ac-H[dR][Phe(3,4-F2)]L-{ACC} (SMILES CC(=O)N[C@@H](Cc1c[nH]cn1)C(=O)N[C@H](CCCNC(=N)N)C(=O)N[C@@H](Cc1ccc(F)c(F)c1)C(=O)N[C@@H](CC(C)C)C(=O)Nc1ccc2c(CC(N)=O)cc(=O)oc2c1)
## Result 474

## Task In one line, give reported Relative substrate activity (rate of hydrolysis), cathepsin L of the entry Ac-[Tic][Orn][Phe(4-F)]L-{ACC} (SMILES CC(=O)N1Cc2ccccc2C[C@H]1C(=O)N[C@@H](CCCN)C(=O)N[C@@H](Cc1ccc(F)cc1)C(=O)N[C@@H](CC(C)C)C(=O)Nc1ccc2c(CC(N)=O)cc(=O)oc2c1) .
## Result 684

---

tested target: cathepsin K (Homo sapiens)
Construct: made in house
Sequence (P43235 115-329): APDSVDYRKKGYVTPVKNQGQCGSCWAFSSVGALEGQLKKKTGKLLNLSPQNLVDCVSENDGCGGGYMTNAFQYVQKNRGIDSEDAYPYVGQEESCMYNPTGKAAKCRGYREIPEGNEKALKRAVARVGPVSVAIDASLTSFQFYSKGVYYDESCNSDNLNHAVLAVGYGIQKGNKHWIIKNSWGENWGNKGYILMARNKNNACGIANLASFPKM
procedure summary: Kinetic parameters of ACC substrates with cathepsin K
Assay type: biochemical
experimental parameters: Fig. 5B; pH 5.5, 37 °C; cathepsin K 5–20 nM; triplicate, SD below 15%
Non-standard residues stand in square brackets, D forms with d. *: point of attachment. Phe(F5) = N[C@@H](Cc1c(F)c(F)c(F)c(F)c1F)C(=O)O; Phe(3,4-F2) = N[C@@H](Cc1ccc(F)c(F)c1)C(=O)O; Phe(3-F) = N[C@@H](Cc1cccc(F)c1)C(=O)O; Phe(4-F) = N[C@@H](Cc1ccc(F)cc1)C(=O)O; ACC = NC(=O)Cc1cc(=O)oc2cc(N*)ccc12; hArg = N=C(N)NCCCC[C@H](N)C(=O)O; OBn = c1ccc(CO*)cc1
observation type: kcat/KM Cath-K

Worked examples, 2 substances total:
Ac-H[dV][Phe(3-F)]R-{ACC} (SMILES CC(=O)N[C@@H](Cc1c[nH]cn1)C(=O)N[C@@H](C(=O)N[C@@H](Cc1cccc(F)c1)C(=O)N[C@@H](CCCNC(=N)N)C(=O)Nc1ccc2c(CC(N)=O)cc(=O)oc2c1)C(C)C)	5,700 M^-1s^-1
Ac-H[dV][Phe(3,4-F2)]R-{ACC} (SMILES CC(=O)N[C@@H](Cc1c[nH]cn1)C(=O)N[C@@H](C(=O)N[C@@H](Cc1ccc(F)c(F)c1)C(=O)N[C@@H](CCCNC(=N)N)C(=O)Nc1ccc2c(CC(N)=O)cc(=O)oc2c1)C(C)C)	1,010 M^-1s^-1

## Task Please report kcat/KM Cath-K for the following substance: Ac-H[dV][Phe(F5)]R-{ACC} (SMILES CC(=O)N[C@@H](Cc1c[nH]cn1)C(=O)N[C@@H](C(=O)N[C@@H](Cc1c(F)c(F)c(F)c(F)c1F)C(=O)N[C@@H](CCCNC(=N)N)C(=O)Nc1ccc2c(CC(N)=O)cc(=O)oc2c1)C(C)C)
## Result < 10 M⁻¹ s⁻¹

## Task Give kcat/KM Cath-K for Ac-H[dL][Phe(F5)]R-{ACC} (SMILES CC(=O)N[C@@H](Cc1c[nH]cn1)C(=O)N[C@H](CC(C)C)C(=O)N[C@@H](Cc1c(F)c(F)c(F)c(F)c1F)C(=O)N[C@@H](CCCNC(=N)N)C(=O)Nc1ccc2c(CC(N)=O)cc(=O)oc2c1)
## Result < 10 M⁻¹ s⁻¹

## Task Give the reported value of kcat/KM Cath-K for this record: Ac-H[dV][Phe(F5)][hArg]-{ACC} (SMILES CC(=O)N[C@@H](Cc1c[nH]cn1)C(=O)N[C@@H](C(=O)N[C@@H](Cc1c(F)c(F)c(F)c(F)c1F)C(=O)N[C@@H](CCCCNC(=N)N)C(=O)Nc1ccc2c(CC(N)=O)cc(=O)oc2c1)C(C)C)
## Result < 10 M⁻¹ s⁻¹

## Task Look up kcat/KM Cath-K of Ac-H[dV][Phe(F5)]E(OBn)-{ACC} (SMILES CC(=O)N[C@@H](Cc1c[nH]cn1)C(=O)N[C@@H](C(=O)N[C@@H](Cc1c(F)c(F)c(F)c(F)c1F)C(=O)N[C@@H](CCC(=O)OCc1ccccc1)C(=O)Nc1ccc2c(CC(N)=O)cc(=O)oc2c1)C(C)C) and report it.
## Result 626 M⁻¹ s⁻¹

## Task Check the records and state kcat/KM Cath-K for Ac-[hArg][dV][Phe(F5)]R-{ACC} (SMILES CC(=O)N[C@@H](CCCCNC(=N)N)C(=O)N[C@@H](C(=O)N[C@@H](Cc1c(F)c(F)c(F)c(F)c1F)C(=O)N[C@@H](CCCNC(=N)N)C(=O)Nc1ccc2c(CC(N)=O)cc(=O)oc2c1)C(C)C)
## Result 96 M⁻¹ s⁻¹

## Task Name the recorded kcat/KM Cath-K of the substance listed here: Ac-H[dV][Phe(4-F)]R-{ACC} (SMILES CC(=O)N[C@@H](Cc1c[nH]cn1)C(=O)N[C@@H](C(=O)N[C@@H](Cc1ccc(F)cc1)C(=O)N[C@@H](CCCNC(=N)N)C(=O)Nc1ccc2c(CC(N)=O)cc(=O)oc2c1)C(C)C)
## Result 2,580 M^-1s^-1
